Exercise: state measured Disease Control (%) SEPTTR-184 3DC for each of the molecules provided.
# Test system: Zymoseptoria tritici (SEPTTR-184)
# assay_explanation: Cyp51 dsRNA tile (fragment) foliar application bioassay (Example 6)
# Type: in vivo
# assay_conditions: 3 days curative; rate 12.5 ppm; average of 2 trials
One number for each entry, in %.

Provide Disease Control (%) SEPTTR-184 3DC for all items below, preserving their order.
1. MgCyp51-T11: dsRNA tile of Zymoseptoria tritici Cyp51, 172 bp, location 775-946 (nucleic acid, listed as Zymoseptoria tritici) TCCGAGACATACATGTCGATCATTCAGAAGAGACGAGAGTCCAAAACGGGCGAACATGAGGAAGACATGATCCACAACTTGATGCAGTGCAAATACAAGGACGGCAATGCCATTCCCGACAAGGAGATTGCTCATATGATGATTGCGCTGCTCATGGCCGGCCAGCACTCTT
2. MgCyp51-T12: dsRNA tile of Zymoseptoria tritici Cyp51, 138 bp, location 1377-1514 (nucleic acid, listed as Zymoseptoria tritici) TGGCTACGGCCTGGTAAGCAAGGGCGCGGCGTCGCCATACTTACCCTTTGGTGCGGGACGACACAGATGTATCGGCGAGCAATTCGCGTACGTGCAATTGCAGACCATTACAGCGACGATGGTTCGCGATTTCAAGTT

1. 50
2. 45
